target: T1, recombinant YFV E protein (soluble E, sE; YFV Asibi strain) (Yellow fever virus, Asibi strain, UniProt Q6DV88 286-678); assay: BLI monovalent (IgG on tip)
T1 construct: also called YFV E antigen; YFV E monomer
T1 sequence (Q6DV88 286-678): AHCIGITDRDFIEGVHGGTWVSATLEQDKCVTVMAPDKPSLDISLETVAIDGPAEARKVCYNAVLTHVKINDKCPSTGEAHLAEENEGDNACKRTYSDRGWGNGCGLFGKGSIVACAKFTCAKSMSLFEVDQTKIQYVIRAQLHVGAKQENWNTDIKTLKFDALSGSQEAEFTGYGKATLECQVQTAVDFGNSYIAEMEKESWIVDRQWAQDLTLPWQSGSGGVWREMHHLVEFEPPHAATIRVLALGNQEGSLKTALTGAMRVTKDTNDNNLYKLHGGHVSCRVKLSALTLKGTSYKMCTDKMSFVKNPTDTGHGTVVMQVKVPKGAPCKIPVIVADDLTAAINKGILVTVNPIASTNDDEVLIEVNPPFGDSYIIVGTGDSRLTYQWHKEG
Kd strictly less than 2 nM = Fulfilled. Otherwise Not fulfilled.

Q. Lab note: Kd threshold 2 nM. Does this binder come in strictly under it? ADI-46586 (antibody, V domains shown, full-length IgG; also called Antibody Number 43) VH: EVQLVESGGGLVKPGGSLRLSCAASGFTFTDYYMSWIRQAPGKGLEWVSYITSSGNTKYYADSVKGRFTISRDNAKNSLFLQMNSLRAEDTAVYFCARDGSMVNAIDYWGQGTLVTVSS VL: QPVLTQPPSVSAAPGQKVTISCSGSSSNIGNDYVSWYQQLPGTAPKLLIYDNNKRPSGIPDRFSGSKSGTSATLGITGLQTGDEGDYYCGTWDSSLSAAWVFGGGTKVTVL
A. Not fulfilled

Q. Strictly below 2 nM: is that where Kd of ADI-48916 (antibody, V domains shown, full-length IgG; also called Antibody Number 56) VH: EVQLVESGGGVVQPGRSLRLSCAASGFTFSNSGMHWVRQAPGKGLEWVAVIWYDSRNQNYADSVKGRFTISRDNSKNTLFLQMNSLRAEDTAVYYCARDYYASGDGSIDYWGQGTLVTVSS VL: DIQVTQSPSSLSASVGGRVTITCRASQGIRNDLGWYQRKPGKAPKRLIYAASSLQSGVPSRFSGSGSGTEFTLTISSLQPEDFATYYCLQHNSYPLTFGGGTKVDIK sits?
A. Not fulfilled

Q. hey, is Kd for ADI-42229 (antibody, V domains shown, full-length IgG; also called Antibody Number 3) VH: QVQLQESGPGLVKPSETLSLTCAVSGYSISSGFYWGWIRQPPGKGLEWIGSMYHSGITYYNPSLKSRVTISVDTSKNQFSLKLTSVTAADTAMYYCARNAPENYYGSGRESFDIWGQGTTVTVSS VL: QSVVTQPPSVSAAPGQKVTISCSGSSSNIGNNYVSWYQQFPRTAPKLLIYDNKKRPSGIPDRFSGSASGTSATLGITGLQTGDEADYYCGTWDSSLSAWVFGGGTKVTVL lower than 2 nM or not?
A. Not fulfilled

Q. Please let me know if ADI-48908 (antibody, V domains shown, full-length IgG; also called Antibody Number 59) VH: EVQLLESGGGLVQPGRSLRLSCAVSGFTFAEYAMHWVRQAPGKGLEWVSSISWNSGRIGYVDSVRGRFTISRDNAKNSLYLQMNSLRVEDTAFYYCAKGYDSSGYYWADYWGQGTLVTVSS VL: EIVMTQSPATLSVSPGERATLSCRASQSVSFNLAWYQQKPGQAPRLLISRASTRAAGVPARFSGSGSGTEFTLTISSLQSEDFAVYYCQQYNNWPPLTFGGGTKLEIK shows Kd below 2 nM.
A. Fulfilled

Q. Is it true that Kd reported for ADI-45074 (antibody, V domains shown, full-length IgG) VH: QVQLQQWGAGLLKPSETLSLTCAVYGGSFSGYYWSWIRQPPGKGLEWIGEINHRGSTDYNPSLKSRVTMSVDTSKNQFSLRLSSVTAADTALYYCARGRLAWGLRGQKSPNFFAYWGQGATVTVSS VL: DIQMTQSPDSLAVSLGERATINCKSSQSVFYSSNSQNYLAWYQQKPGQPPKLLIYWASTRESGVPDRFSGSGSATDFSLTISSLQAEDVAVYYCQQFHSPPWTFGQGTKLEIK is less than 2 nM?
A. Fulfilled
